test: Effect of concentration on the stability of the solution (purity over time); conditions: 7 wt %; in water at 25° C.
reported.endpoint: Purity at hr 0 (%)
Your answer is read as %, so omit the unit and give the number.

# molecule, measured.number
data = [
    ("CCN(CC)CCOC(=O)Cc1c(C)n(C(=O)c2ccc(Cl)cc2)c2ccc(OC)cc12.Cl", 98.5),
    ("CCN(CC)CCOC(=O)CCc1ccc2cc(OC)ccc2c1.Cl", 98.5),
    ("CCN(CC)CCOC(=O)C(C)c1ccc2oc(-c3ccc(Cl)cc3)nc2c1.Cl (stereo not shown)", 98.6),
    ("CCN(CC)CCOC(=O)CC1=C(C)C(=Cc2ccc([S+](C)[O-])cc2)c2ccc(F)cc21.Cl (stereo not shown)", 97.6),
    ("CCN(CC)CCOC(=O)Cc1ccc(C(=O)c2ccc(C)cc2)n1C.Cl", 98.1),
    ("CCN(CC)CCOC(=O)Cc1sc(-c2ccccc2)nc1-c1ccc(Cl)cc1.Cl", 99.1),
]

Next up:
Noted for `CCN(CC)CCOC(=O)CCc1nc(-c2ccccc2)c(-c2ccccc2)o1.Cl` : its Purity at hr 0 reads 98.8

meta.source: patent US20230157952A1
